# condition: in ethanol, 283.15 K
parameter: solubility (mole fraction)

{"given_smiles": "CC(=O)N[C@@H](C)C(=O)O", "parameter": "solubility (mole fraction)", "observed_value": 0.111}

---

# condition: in ethyl acetate, 283.15 K

{"given_smiles": "CC(=O)N[C@@H](C)C(=O)O", "solubility (mole fraction)": 0.00433}

---

# condition: in n-butanol, 298.15 K

{"given_smiles": "CC(=O)N[C@@H](C)C(=O)O", "solubility (mole fraction)": 0.0869}

---

# condition: in n-butanol, 288.15 K

{"given_smiles": "CC(=O)N[C@@H](C)C(=O)O", "solubility (mole fraction)": 0.0707}
